- measured_target: T1, His-tagged CD47 recombinant protein, CD47-His (human, UniProt Q08722 19-141, limits assumed)
- T1 construct: it is not restated for CD47-His; also called human CD47-His protein; antigen CD47-His; not shown: His tag
- procedure_text: ELISA on coated CD47-His; Ab 13.333 nM
Known OD450 nm of a selection of binders

// worked examples, OD450 nm included
binder | test_value
95E2D10 (antibody, V domains shown, Murine hybridoma antibody purified on protein G) VH: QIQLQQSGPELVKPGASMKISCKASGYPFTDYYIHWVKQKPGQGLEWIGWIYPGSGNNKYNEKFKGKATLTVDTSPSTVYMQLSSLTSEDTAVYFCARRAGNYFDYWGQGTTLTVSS VL: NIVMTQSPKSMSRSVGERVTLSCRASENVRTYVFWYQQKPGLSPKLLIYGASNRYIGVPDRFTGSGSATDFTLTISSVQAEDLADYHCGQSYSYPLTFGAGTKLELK | 2.98
20H4G5 (antibody, V domains shown, Murine hybridoma antibody purified on protein G) VH: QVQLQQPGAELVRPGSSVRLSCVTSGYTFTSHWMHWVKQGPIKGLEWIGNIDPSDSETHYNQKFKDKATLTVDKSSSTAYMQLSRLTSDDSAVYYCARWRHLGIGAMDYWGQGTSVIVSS VL: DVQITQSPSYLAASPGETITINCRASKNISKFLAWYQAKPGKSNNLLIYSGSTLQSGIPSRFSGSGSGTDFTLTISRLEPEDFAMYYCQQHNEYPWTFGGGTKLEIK | 2.94

Here is the next item to consider.
Query :: Look at this binder and give its reported OD450 nm. 51E2F11 (antibody, V domains shown, Murine hybridoma antibody purified on protein G) VH: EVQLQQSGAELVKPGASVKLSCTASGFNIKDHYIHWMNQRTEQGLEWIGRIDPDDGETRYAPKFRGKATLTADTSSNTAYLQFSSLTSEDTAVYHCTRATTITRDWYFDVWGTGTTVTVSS VL: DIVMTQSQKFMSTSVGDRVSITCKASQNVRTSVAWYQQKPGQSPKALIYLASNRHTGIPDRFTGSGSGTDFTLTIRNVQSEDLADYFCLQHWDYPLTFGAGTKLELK
Result :: 2.97
